Where these numbers come from: PubChem BioAssay AID540308

targetSystem: Melanocortin receptor 4 (Homo sapiens) (UniProt P32245)
Sequence (P32245 whole entry, looked up): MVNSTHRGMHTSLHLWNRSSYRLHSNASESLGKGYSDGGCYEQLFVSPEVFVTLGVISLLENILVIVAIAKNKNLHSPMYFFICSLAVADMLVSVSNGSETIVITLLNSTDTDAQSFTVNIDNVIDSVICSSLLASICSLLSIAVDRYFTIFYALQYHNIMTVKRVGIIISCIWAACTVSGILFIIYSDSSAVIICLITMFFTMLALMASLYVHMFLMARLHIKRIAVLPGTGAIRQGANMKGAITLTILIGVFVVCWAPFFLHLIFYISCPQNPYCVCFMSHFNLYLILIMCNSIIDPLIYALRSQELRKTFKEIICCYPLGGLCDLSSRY
methodDescription: activators of MC4R beta-arrestin recruitment – cell-based, luminescence, agonist arm of biased-ligand search, primary screen (AID 540308)
cond: U2OS MC4R beta-arrestin complementation, at 8.9 µM, percent of melanotan II response, DMSO zero
Among all 360,000 compounds or so, about 3,500 (0.97%) were called active.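 How the source made its calls: active means activation above a per-plate cutoff, the mean activation of sample wells on that plate plus 3 SD (cut at about 8% in these data); inactive means the rest.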 What follows is part of a selection rich in actives, with near analogues and random picks from the rest.
Your answer must be one of the following: active, inactive

Use the examples below as a reference point.
O=C(OC12CC3CC(CC(C3)C1)C2)c1ccc(NCc2cc(O)ccc2O)cc1
active
CCCCN(C=O)c1c(CC)nc2c(OCCC3CCCCC3)cccn12
inactive
OC[C@@H]1CN(C2CCCC2)C[C@H](n2cnc3c(NC4CCC4)ncnc32)O1
inactive

Prompt line: What did the test return for `COC(=O)c1ccc(NCc2cc(O)ccc2O)cc1` ?
Response line: inactive

Prompt line: Proceed to O=C(Nc1ccc(Cl)cc1)C1Cc2c(-c3ccc4c(c3)OCO4)ccnc2O1 (stereo not given)
Response line: inactive

Prompt line: Moving on to the next molecule: `CC(C)OC(=O)c1ccc(NCc2cc(O)ccc2O)cc1Cl`
Response line: inactive

Prompt line: Try this molecule too: `COc1ccc(NC(=O)CN(C)C(=O)c2cc(-c3ccc(C)o3)nc3ccccc23)cc1`
Response line: inactive

Prompt line: Same thing, different molecule: Cc1coc2c(O)cc3c(c12)OC1(N2CCCCC2)C(=O)NCCCC31 (stereo not given)
Response line: active

Prompt line: Same again, this time with `CC(=O)N1CCN(C(=O)c2cc(-c3ccc(C)o3)nc3ccccc23)CC1`
Response line: inactive

Prompt line: Field entry: `COc1ccc(NC(=O)c2cc(-c3ccc(C)o3)nc3ccccc23)cc1`
Response line: active

---

targetSystem: Melanocortin receptor 4 (Homo sapiens) (UniProt P32245)
methodDescription: activators of MC4R beta-arrestin recruitment – cell-based, luminescence, agonist arm of biased-ligand search, primary screen (AID 540308)
cond: U2OS MC4R beta-arrestin complementation, at 8.9 µM, hits give high values, percent of melanotan II response, DMSO zero
Screen size: about 360,000 compounds; about 3,500 (0.97%) were called active. Many of the other results were omitted from the sample, so actives are more common in it than they were.
Exercise: for every item that follows, state its recorded activation.
Answers are plain numbers, in %.

Recorded results for 2 compounds are shown here.
Cc1ccccc1S(=O)(=O)NC(=O)C1(C)CCN1C(=O)C1(c2ccccc2)CCCC1 (configuration not stated)
-0.26
CC(=O)Nc1cccc(-c2ccnc3c2CC(C)(C(=O)NCc2ccco2)O3)c1 (configuration not stated)
0.36

Here are 6 compounds. What values of activation were reported for them?
1. CCCCNc1c(-c2ccc(OC)c(Sc3ccc(OC)cc3)c2)nc2ccc(Cl)cn12
2. COc1ccc(N2CCN(C(=O)CCc3nc(-c4ccc(C)cc4)no3)CC2)cc1
3. CSc1ccc(/C=N\NC(=O)COc2ccc(Cl)cc2Br)cc1
4. CCSc1nc2sc3c(c2c(=O)[nH]1)CC(C)(C)OC3
5. COc1ccccc1C(=O)OCC(=O)NCCNC(=O)COC(=O)c1ccccc1OC
6. CC(=O)OC[C@@H]1CN(Cc2ccccc2)C[C@H](n2cnc3c(NCc4ccco4)ncnc32)O1

Response line:
1: -1.91; 2: -1.45; 3: 36.4; 4: -0.6; 5: -1.16; 6: -2.47

Consider the following items and state reported activation for each.
1. CC1(C(=O)NS(=O)(=O)c2ccc3ccccc3c2)CCN1C(=O)C1(c2ccc(Cl)cc2)CCC1 (configuration not stated)
2. CCCCNc1c(-c2cccc(Sc3ccc(OC)cc3)c2)nc2ccccn12
3. Cc1ccc(/C=N/NC(=O)COc2ccccc2-c2ccccc2)cc1
4. COC(=O)c1ccc(Sc2ccc(F)cc2)c(N)c1
5. CCSc1nnc(-c2cc3c(s2)-c2ccccc2CC3)o1
6. Cc1ccc(C2(C(F)(F)F)N=C3Sc4cc(C)cc(C)c4N3C(=O)N2)cc1 (configuration not stated)

Response line:
1. -0.24
2. 13.9
3. 1.38
4. -1.17
5. -0.34
6. -0.99

Each compound below has a reported value. Please supply its activation.
1. Cc1ccc(Sc2ccc(NC(=O)c3ccc(F)cc3)cc2C#N)cc1
2. O=C(NCc1ccccc1)C1CCCN(c2nc3ccsc3c(=O)s2)C1 (configuration not stated)
3. O=C(NCc1ccccc1)C1CCCN(S(=O)(=O)c2cccs2)C1 (configuration not stated)
4. COc1ccc(Sc2ccc(NC(=O)c3cccc(Cl)c3)cc2C#N)cc1
5. CSc1nc2sc3c(c2c(=O)[nH]1)CCc1ccccc1-3
6. COc1ccc(-c2noc(COc3ccc(Cl)c(C)c3)n2)cc1
7. Cn1c(=O)c2cc(NC(=O)NCCc3cccs3)ccc2n1Cc1cccc(C(F)(F)F)c1
8. COc1ccc(CCNC(=O)C(Sc2ccccn2)c2ccccc2)cc1OC (configuration not stated)

Response line:
[17, 8.43, 1.44, -0.48, 12.4, 9.56, -0.26, -0.76]
